# System: NIH3T3
# PROTOCOL NOTES: Cytotoxic Profiling of Annotated Libraries Using Quantitative High-Throughput Screening (AID 1296008); further: nearly all actives have a fitted effect of over 60% in size
# STUDY CONDITIONS: Five cell lines viability, CellTiter-Glo ATP luminescence, 48-72 h
Inconclusive results are not listed. Activity calls are given as the source filed them. The call rests on the fitted dose curve; in most records, active means well fitted inhibition curve with a large enough effect; inconclusive means small, poorly fitted or top-dose-only effect; inactive means flat fitted curve, though single readings scatter.
Choose the fitting class; nothing outside label 1 for active, label 0 for inactive is accepted.

Lab log entry: Cc1ncc(OC[C@@]2(c3cccc(F)c3)C[C@H]2C(=O)Nc2ccc(F)cn2)c(C)n1 — outcome as called in the assay? label 0

Lab log entry: CC(C)=CCC[C@]1(C)C=Cc2c(O)c3c(c(CC=C(C)C)c2O1)O[C@]12C(=C[C@@H]4CC1C(C)(C)O[C@@]2(C/C=C(/C)C(=O)O)C4=O)C3=O — outcome as called in the assay? label 1

Lab log entry: CC1=C[C@H]2O[C@@H]3C[C@H]4OC(=O)/C=C/C=C/C(=O)OCC/C(C)=C/C(=O)OC[C@@]2(CC1)[C@]4(C)[C@]31CO1 — outcome as called in the assay? label 1

====

# PROTOCOL NOTES: Primary qHTS to identify inhibitors of SARS-CoV-2 cell entry (AID 1645846); further: nearly all actives have a fitted effect of over 45% in size
# STUDY CONDITIONS: SARS-CoV-2 pseudovirus cell entry assay, luminescence; at 57.1 µM (top of the series) unless noted
Inconclusive results are not listed.
Please go through the items and note down their activity change, negative = inhibition.
Kindly provide the numeric value in % only, without the unit symbol.

# get_value(readout='activity change, negative = inhibition', item= CN1C2CCC1CC(OC(=O)C(CO)c1ccccc1)C2 (stereo unspecified) ) -16.5

# get_value(readout='activity change, negative = inhibition', item= CC(CC=O)CCCC(C)(C)O (stereo unspecified) ) -11.7

# get_value(readout='activity change, negative = inhibition', item= Cc1sc2c(c1C)C(c1ccc(Cl)cc1)=N[C@@H](CC(N)=O)c1nnc(C)n1-2 ) -6.24

# get_value(readout='activity change, negative = inhibition', item= C#CCN(C)CC1=Cc2ccccc2Oc2ccccc21 ) 1.65

====

# PROTOCOL NOTES: qHTS for Inhibitors of the Functional Ribonucleoprotein Complex (vRNP) of Lymphocytic Choriomeningitis Arenaviruses (LCMV): Viability assay - alamar blue signal for LCMV Primary Screen (AID 1347085); further: nearly all actives have a fitted effect of over 80% in size
# STUDY CONDITIONS: alamar blue viability counter-screen, LCMV vRNP screen cells; series mostly up to 57.5 µM
Results filed as inconclusive are left out. Activity calls are given as the source filed them. Calls follow the shape of the full dose curve; tested in HEK293 reporter line.
Choose the fitting class; nothing outside active, inactive is accepted.

Lab log entry: Nc1nc(Cl)nc2c1ncn2[C@@H]1O[C@H](COP(=O)(O)OP(=O)(O)OP(=O)(O)O)[C@@H](O)[C@H]1O — outcome as called in the assay? inactive

Lab log entry: COc1c2c(c(C)c3c1C(=O)OC3)O[C@@]1(C)CC[C@@]3(O)C(C)(C)OC(=O)CC[C@]3(C)[C@H]1C2 — outcome as called in the assay? inactive

Lab log entry: Nc1c(S(=O)(=O)O)cc(Nc2ccc(Nc3nc(Cl)nc(Nc4ccc(S(=O)(=O)O)cc4)n3)c(S(=O)(=O)O)c2)c2c1C(=O)c1ccccc1C2=O — outcome as called in the assay? inactive

Lab log entry: COC(=O)c1ccccc1-n1c(C)nc2ccccc2c1=O — outcome as called in the assay? inactive

Lab log entry: CC1CN(S(=O)(=O)c2cccc3cnccc23)CCN1 (stereo unspecified) — outcome as called in the assay? inactive

Lab log entry: O=C1O/C(=C/Br)CCC1c1cccc2ccccc12 (stereo unspecified) — outcome as called in the assay? inactive

Lab log entry: C=CC(C)(CCC=C(C)C)OC(=O)C(C)C (stereo unspecified) — outcome as called in the assay? inactive

Lab log entry: O=c1[nH]ccc2c(O)cccc12 — outcome as called in the assay? inactive

Lab log entry: NC(N)=NC(N)=Nc1ccccc1 — outcome as called in the assay? inactive

Lab log entry: COC(=O)c1cc(OC)cc(O)c1C(=O)c1c(O)cc(C)cc1O — outcome as called in the assay? inactive

Lab log entry: OC[C@H]1O[C@@H](OC[C@H]2O[C@@H](O)[C@H](O)[C@@H](O)[C@@H]2O)[C@H](O)[C@@H](O)[C@@H]1O — outcome as called in the assay? inactive

Lab log entry: CC(C)NCC(O)COc1ccc(CC(N)=O)cc1 (stereo unspecified) — outcome as called in the assay? inactive

Lab log entry: O=c1ccc2cc3ccoc3cc2o1 — outcome as called in the assay? inactive

Lab log entry: COc1ccc(/C=C/C(=O)Nc2ccccc2C(=O)O)cc1OC — outcome as called in the assay? inactive

Lab log entry: Nc1nc2c(cnn2CCc2ccccc2)c2nc(-c3ccco3)nn12 — outcome as called in the assay? inactive

Lab log entry: Nc1nc(NCCNc2ncc(-n3ccnc3)c(-c3ccc(Cl)cc3Cl)n2)ccc1[N+](=O)[O-] — outcome as called in the assay? active
